Test system: BDF1 mice, B16 melanoma ip, median survival T/C
Experiment: NCI In Vivo Anticancer Drug Screen. Data for tumor model B16 Melanoma (intraperitoneal) in B6D2F1 (BDF1) mice
Conditions: endpoint: median survival time; dose: 12.5 mg/kg/injection; schedule: Q01DX009 (ip); vehicle: saline with Tween-80
Inconclusive results and toxic doses are left out. Rule for the calls: active = survival T/C of 150% or more; inactive = T/C below 125% in these data.
Write down the outcome that applies. Available outcomes: y for active, n for inactive

Solved cases below.
# MOLECULE, CLASS
data = [
    ("O=Cc1ccc([N+](=O)[O-])s1", "n"),
    ("CCCCCCCCCCCCCC[N+](C)(C)CC(=O)O", "n"),
    ("COC(=O)[CH](C[N+](=O)[O-])[Hg][Cl] (configuration not stated)", "n"),
]

Per the assay record, what outcome was assigned to CC(C)COC(=O)c1ccc(NC(=O)Nc2ccccc2Cl)cc1 ?
n

Per the assay record, what outcome was assigned to O=[N+]([O-])c1ccccc1O ?
n

Per the assay record, what outcome was assigned to CCCC1CC[N-]CC1.CCCC1CC[N-]CC1.[Cl][Pt+2][Cl] ?
n

Per the assay record, what outcome was assigned to COc1cc(C(=O)O)c2c(c1C)OC(=O)c1c(C)cc(O)c(C=O)c1O2 ?
y

Per the assay record, what outcome was assigned to Cc1cnnc2ccccc12 ?
n

---

Tested on: BDF1 mice, B16 melanoma ip, median survival T/C
Assay: NCI In Vivo Anticancer Drug Screen. Data for tumor model B16 Melanoma (intraperitoneal) in B6D2F1 (BDF1) mice
Details: endpoint: median survival time; dose: 25.0 mg/kg/injection; schedule: Q01DX009 (ip); vehicle: Klucel (hydroxypropylcellulose) (HPC)
Toxic doses and inconclusive results are not listed. The calls were made as follows: active = survival T/C of 150% or more; inactive = T/C below 125% in these data.
Write down the outcome that applies. Available outcomes: active, inactive

# COMPOUND, TESTED_ON, CLASS
measured = [
    ("O=c1oc(-c2ccccc2Cl)nc2cc(Cl)ccc12", "BDF1 mice, B16 melanoma ip, median survival T/C", "inactive"),
    ("Clc1ccc(NC2=NCCCS2)c2ccccc12", "BDF1 mice, B16 melanoma ip, median survival T/C", "inactive"),
    ("CCNC(C)(C)C(S)c1ccc(Cl)s1 (stereo unspecified)", "BDF1 mice, B16 melanoma ip, median survival T/C", "inactive"),
    ("COc1ccc2[nH]c3ccc4cc[n+](CCN5CCC(C6CCN(CC[n+]7ccc8ccc9[nH]c%10ccc(OC)cc%10c9c8c7)CC6)CC5)cc4c3c2c1", "BDF1 mice, B16 melanoma ip, median survival T/C", "active"),
    ("Cc1cc(CCl)c(C)c(Br)c1C", "BDF1 mice, B16 melanoma ip, median survival T/C", "inactive"),
    ("O=C(O)c1cccnc1", "BDF1 mice, B16 melanoma ip, median survival T/C", "inactive"),
    ("CCNC(C)(C)C(SSS)c1ccco1 (stereo unspecified)", "BDF1 mice, B16 melanoma ip, median survival T/C", "inactive"),
    ("CCCCCCCCCCCCCCCC(=O)NNC(C)C", "BDF1 mice, B16 melanoma ip, median survival T/C", "inactive"),
]

Per the assay record, what outcome was assigned to O=c1[nH]c2ccccc2n1C1CCN(CCCC(c2ccc(F)cc2)c2ccc(F)cc2)CC1 ?
inactive

Per the assay record, what outcome was assigned to O=[N+]([O-])c1cc([As](=O)(O)O)ccc1Cl ?
inactive

Per the assay record, what outcome was assigned to CCCCCCCCCCCCCCCC(=O)N(CCC#N)C(C)(C)CCC(C)(C)N(CCC#N)C(=O)CCCCCCCCCCCCCCC ?
inactive

Per the assay record, what outcome was assigned to Oc1ccc2ccccc2c1C1=NNc2n[nH]c(=S)n2N1 ?
inactive

Per the assay record, what outcome was assigned to CCCCCCCCCCCCCC(=O)CCC ?
inactive

Per the assay record, what outcome was assigned to COc1ccc(N=C=Nc2ccc(OC)cc2)cc1 ?
inactive

Per the assay record, what outcome was assigned to CNC(=O)ON=C1CCC(CC2CCCCC2)CC1 (stereo unspecified) ?
inactive

Per the assay record, what outcome was assigned to N/C(=N\N=C\c1ccc(-c2ccccc2)cc1)N[N+](=O)[O-] ?
inactive
